Values compiled from patent US7868026B2.

target: CYP3A4 (Homo sapiens, UniProt P08684); assay: Determination of compound Kiapp against recombinant CYP3A4 enzyme (BFC fluorescent substrate); assay type: biochemical; conditions: Super. enzyme preparation, read-out: Kiapp (BFC, Super.)
Sequence (P08684 whole entry): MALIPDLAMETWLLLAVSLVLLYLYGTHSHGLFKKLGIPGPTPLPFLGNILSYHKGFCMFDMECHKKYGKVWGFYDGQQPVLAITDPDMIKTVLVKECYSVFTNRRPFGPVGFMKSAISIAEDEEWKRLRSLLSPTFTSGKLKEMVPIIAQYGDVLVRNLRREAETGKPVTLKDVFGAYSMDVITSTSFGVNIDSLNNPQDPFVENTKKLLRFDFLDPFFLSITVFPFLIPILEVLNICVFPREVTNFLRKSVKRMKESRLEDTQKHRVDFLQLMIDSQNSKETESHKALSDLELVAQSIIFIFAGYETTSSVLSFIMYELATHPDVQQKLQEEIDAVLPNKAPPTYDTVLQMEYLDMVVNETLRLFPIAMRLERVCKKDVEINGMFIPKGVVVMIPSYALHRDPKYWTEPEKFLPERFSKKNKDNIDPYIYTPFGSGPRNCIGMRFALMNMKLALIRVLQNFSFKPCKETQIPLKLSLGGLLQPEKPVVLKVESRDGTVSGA
Readout: pKi
Give bare numbers, as −log10 of the molar value.

// input: 7 compounds below; output: pKi for each
1. CCCCN(C)C(=O)c1ccccc1S(=O)(=O)Nc1cncc(OC)c1
2. CCOc1ccncc1NS(=O)(=O)c1ccccc1C(=O)N(C)Cc1ccc(C(F)(F)F)cc1
3. COc1ccncc1NS(=O)(=O)c1ccccc1C(=O)N(C)Cc1ccc(F)cc1
4. Cc1ccncc1NS(=O)(=O)c1ccccc1C(=O)N(C)Cc1ccc(F)cc1
5. COc1cncc(NS(=O)(=O)c2ccccc2C(=O)NCCC(C)C)c1
6. COc1cncc(NS(=O)(=O)c2ccccc2C(=O)N(C)Cc2cccc(F)c2)c1
7. Cc1cncc(NS(=O)(=O)c2ccccc2C(=O)NCc2ccc(Cl)c(Cl)c2)c1

1. 7.94
2. 8.00
3. 7.54
4. 7.41
5. 7.61
6. 7.88
7. 8.72

// input: 2 compounds below; output: pKi for each
1. COc1ccncc1NS(=O)(=O)c1ccccc1C(=O)NC(C)C1CC1 (stereo not drawn)
2. COc1cncc(NS(=O)(=O)c2ccccc2C(=O)NCC2(O)C3CC4CC(C3)CC2C4)c1 (stereo not drawn)

1: 7.20; 2: 8.47

====

biological target: CYP3A4 (Homo sapiens, UniProt P08684); experiment: Determination of IC50 against CYP3A4 by measurement of inhibition of midazolam metabolism (human liver microsomes, 1-hydroxymidazolam by LC-MS/MS); assay type: biochemical; design: 0.1 mg/mL human liver microsomes; details: 2 μM midazolam, 0.1 mg/mL human liver microsomes
Readout: pIC50
Numbers only, as −log10 of the molar value.

Some solved entries appear below for comparison.
COCCN(C)C(=O)c1ccccc1S(=O)(=O)Nc1cncc(C)c1 [Example 162]: 7.03
COc1cncc(NS(=O)(=O)c2ccccc2C(=O)N(CCO)C(C)C)c1 [Example 98]: 7.29

// input: 3 molecules below; output: pIC50 for each
1. COc1cncc(NS(=O)(=O)c2ccccc2C(=O)NC2CCCC2)c1 [Example 214]
2. O=C(NCc1ccccc1F)c1ccccc1S(=O)(=O)Nc1cccnc1 [Example 5]
3. CC1CCN(C(=O)c2ccccc2S(=O)(=O)Nc2cccnc2)CC1 [Example 41]

1: 7.85; 2: 7.39; 3: 7.20

====

molecular target: CYP3A4 (Homo sapiens, UniProt P08684); assay: Determination of compound Kiapp against recombinant CYP3A4 enzyme (BFC fluorescent substrate); assay type: biochemical; conditions: Baculo. enzyme preparation, read-out: Kiapp (BFC, Baculo.)
pKi: −log10 of the molar value.
Rule: pKi under 7 gives 0.0, otherwise 1.0.

Solved cases (2 shown):
COc1cncc(NS(=O)(=O)c2ccccc2C(=O)NCCc2cccnc2)c1: 0.0
CCCNC(=O)c1ccccc1S(=O)(=O)Nc1cccnc1: 0.0

Say whether CC1CC(C)CN(C(=O)c2ccccc2S(=O)(=O)N(C)c2cccnc2)C1 (stereo not drawn) shows pKi of 7 or more.
0.0

Say whether `CCCCOCCCNC(=O)c1ccccc1S(=O)(=O)Nc1cccnc1` shows pKi of 7 or more.
0.0

Say whether `O=C(NCC1CCCC1)c1ccccc1S(=O)(=O)Nc1cccnc1` shows pKi of 7 or more.
0.0

Say whether `CCOc1cncc(NS(=O)(=O)c2ccccc2C(=O)NCc2ccc(F)c(F)c2)c1` shows pKi of 7 or more.
1.0

Say whether COc1cncc(NS(=O)(=O)c2ccccc2C(=O)NC(C)CC(C)C)c1 (stereo not drawn) shows pKi of 7 or more.
1.0

Say whether `O=C(NCc1ccc2ncccc2c1)c1ccccc1S(=O)(=O)Nc1cccnc1` shows pKi of 7 or more.
0.0

====

Give measured pIC50 for each item. Keep answers brief.
molecular target: CYP3A4 (Homo sapiens); experiment: Determination of IC50 against CYP3A4 by measurement of inhibition of midazolam metabolism (human liver microsomes, 1-hydroxymidazolam by LC-MS/MS); type: biochemical; parameters: 0.1 mg/mL human liver microsomes; settings: 2 μM midazolam, 0.1 mg/mL human liver microsomes
Give bare numbers, as −log10 of the molar value.

COc1ccncc1NS(=O)(=O)c1ccccc1C(=O)NCc1ccc(F)c(F)c1 [Example 257]: 7.82
COc1cncc(NS(=O)(=O)c2ccccc2C(=O)NCCc2ccccc2C)c1 [Example 388]: 8.05
CCCCCN(C)C(=O)c1ccccc1S(=O)(=O)Nc1cncc(C)c1 [Example 341]: 7.66
CC1CCN(CC(C)(C)NC(=O)c2ccccc2S(=O)(=O)Nc2cccnc2)CC1 [Example 1]: 6.41

// input: 4 compounds below; output: pIC50 for each
1. COc1cncc(NS(=O)(=O)c2ccccc2C(=O)N(C)CCc2ccccc2)c1 [Example 370]
2. CCCCCN(C)C(=O)c1ccccc1S(=O)(=O)Nc1cnccc1OCC [Example 272]
3. CCOc1cncc(NS(=O)(=O)c2ccccc2C(=O)NC2CCCCC2)c1 [Example 302]
4. COc1ccncc1NS(=O)(=O)c1ccccc1C(=O)N(C)Cc1ccc(F)c(F)c1 [Example 256]

7.92
7.92
7.64
7.84

====

molecular target: UniProt P08684; test: Determination of compound Kiapp against recombinant CYP3A4 enzyme (BFC fluorescent substrate); type: biochemical; settings: Baculo. enzyme preparation, read-out: Kiapp (BFC, Baculo.)
pKi: −log10 of the molar value.
Rule: pKi under 7 gives -1, otherwise 1.

Cc1cncc(NS(=O)(=O)c2ccccc2C(=O)NCCOc2ccccc2)c1: -1
COc1cncc(NS(=O)(=O)c2ccccc2C(=O)NCCc2ccccc2Cl)c1: 1
CCC(C)NC(=O)c1ccccc1S(=O)(=O)Nc1cncc(C)c1 (stereo not drawn): -1
Cc1cncc(NS(=O)(=O)c2ccccc2C(=O)NCCc2ccccc2Cl)c1: 1
Cc1ccncc1NS(=O)(=O)c1ccccc1C(=O)NCCC(C)C: -1

Say whether `COc1ccc(CNC(=O)c2ccccc2S(=O)(=O)N(C)c2cccnc2)cc1` shows pKi of 7 or more.
-1

====

biological target: UniProtKB P08684; experiment: Determination of IC50 against CYP3A4 by measurement of inhibition of midazolam metabolism (human liver microsomes, 1-hydroxymidazolam by LC-MS/MS); format: biochemical; design: 0.1 mg/mL human liver microsomes; conditions: 2 μM midazolam, 0.1 mg/mL human liver microsomes
Give measured pIC50 for each item. Keep answers brief.
Numbers only, as −log10 of the molar value.

Cc1cncc(NS(=O)(=O)c2ccccc2C(=O)N(C)CCC(C)C)c1: 8.15
CN(CCc1ccccc1)C(=O)c1ccccc1S(=O)(=O)Nc1cccnc1: 7.77
Cc1cncc(NS(=O)(=O)c2ccccc2C(=O)N2CCCC2)c1: 7.03
CCOc1ccncc1NS(=O)(=O)c1ccccc1C(=O)NC(C)(C)C: 7.55

// input: 4 compounds below; output: pIC50 for each
1. CCOCCNC(=O)c1ccccc1S(=O)(=O)Nc1cncc(OC)c1
2. COc1cncc(NS(=O)(=O)c2ccccc2C(=O)NCc2ccc(F)c(C(F)(F)F)c2)c1
3. Cc1ccncc1NS(=O)(=O)c1ccccc1C(=O)NCc1ccc(F)c(F)c1
4. Cc1ccccc1CNC(=O)c1ccccc1S(=O)(=O)Nc1cccnc1

1: 6.90; 2: 7.89; 3: 7.82; 4: 7.64

====

molecular target: CYP3A4 (Homo sapiens); test: Determination of compound Kiapp against recombinant CYP3A4 enzyme (BFC fluorescent substrate); type: biochemical; settings: Baculo. enzyme preparation, read-out: Kiapp (BFC, Baculo.)
Readout: pKi
Answers are plain numbers, as −log10 of the molar value.

Some solved entries appear below for comparison.
COCCN(C(=O)c1ccccc1S(=O)(=O)Nc1cncc(N)c1)C(C)C: 6.33
COc1ccncc1NS(=O)(=O)c1ccccc1C(=O)NCCc1ccccc1F: 6.68

Please examine the following record next.
Noted for `CCC(C)(C)NC(=O)c1ccccc1S(=O)(=O)Nc1cccnc1` : its pKi reads 6.19

====

Give measured pKi for each item. Keep answers brief.
target: CYP3A4 (Homo sapiens, UniProt P08684); experiment: Determination of compound Kiapp against recombinant CYP3A4 enzyme (BFC fluorescent substrate); format: biochemical; conditions: Super. enzyme preparation, read-out: Kiapp (BFC, Super.)
Give bare numbers, as −log10 of the molar value.

Some solved entries appear below for comparison.
COc1cncc(NS(=O)(=O)c2ccccc2C(=O)N2CCC(C)CC2)c1: 8.55
COc1cncc(NS(=O)(=O)c2ccccc2C(=O)NCC(F)(F)C(F)(F)C(F)(F)F)c1: 6.48
O=C(NCc1cccc(F)c1F)c1ccccc1S(=O)(=O)Nc1cccnc1: 8.20

Noted for `COc1cncc(NS(=O)(=O)c2ccccc2C(=O)N[C@@H](C)C(C)(C)C)c1` : its pKi reads 7.40

====

target: CYP3A4 (Homo sapiens, UniProt P08684); experiment: Determination of IC50 against CYP3A4 by measurement of inhibition of testosterone metabolism (human liver microsomes, 6-β-OH-testosterone by LC-MS/MS); format: biochemical; parameters: 0.1 mg/mL human liver microsomes; details: read-out: IC50 (Testo.)
# label = y if IC50 < 30 nM else n

Solved cases (5 shown):
CCOC(=O)N1CCN(C(=O)c2ccccc2S(=O)(=O)Nc2cccnc2)CC1: n
COc1cncc(NS(=O)(=O)c2ccccc2C(=O)N2CCC(C)CC2)c1: n
Cc1cncc(NS(=O)(=O)c2ccccc2C(=O)NCC2CCCC2)c1: y
COc1cncc(NS(=O)(=O)c2ccccc2C(=O)NCCc2ccc(F)cc2F)c1: y
CC(C)(C)CNC(=O)c1ccccc1S(=O)(=O)Nc1cccnc1: n

is_below(IC50, 30 nM) for `COc1cncc(NS(=O)(=O)c2ccc(Cl)cc2C(=O)NCc2ccc(F)cc2)c1` ?
n

is_below(IC50, 30 nM) for `COC[C@@H]1[C@@H]2C[C@@H]3[C@H]1CN(C(=O)c1ccccc1S(=O)(=O)Nc1cncc(OC)c1)[C@@H]3C2` ?
n

is_below(IC50, 30 nM) for `CCCCCN(C)C(=O)c1ccccc1S(=O)(=O)Nc1cncc(C)c1` ?
y

is_below(IC50, 30 nM) for `Cc1ccncc1NS(=O)(=O)c1ccccc1C(=O)N(C)CCC(C)C` ?
n
